These data points were gathered from PubChem BioAssay (NCI).

System: SN12C renal
Assay: NCI tumour cell line growth inhibition, 48 h
Exercise: for every item that follows, state its recorded TGI.

Input line: State the recorded TGI for this entry: N#Cc1c(N)c(C#N)c2c(c1-c1ccc(Cl)cc1)COc1ccc(F)cc1-2
Output line: > 50 µM

Input line: Which TGI is listed for CCSc1nnc(-c2ccccc2)nc1Cc1ccc(OC)cc1 ?
Output line: > 100 µM

Input line: Quick one: TGI of OCc1ccc(N(Cc2ccc(F)cc2)CC2CCC2)cc1Cl ?
Output line: 24.7 µM

Input line: Consider the compound N=C(N)SCc1cccc([N+](=O)[O-])c1 and give its measured TGI.
Output line: > 96.1 µM

Input line: Any idea what its TGI is? The compound is CC1(C)OC(=O)C(=Cc2ccc([N+](=O)[O-])s2)C(=O)O1
Output line: 31.6 µM

Input line: TGI for COc1ccc(Nc2nc3ccc(C(F)(F)F)cc3nc2C(=O)O)cc1 ?
Output line: > 100 µM

Input line: Please give the measured TGI for this compound: Cc1cccc(C)c1N1C(=O)C2c3[nH]c4ccccc4c3C3CCC(C(C)(C)C)CC3C2C1=O (stereo unspecified)
Output line: 21.8 µM

Input line: So what's the measured TGI for this one? CC12CC(=O)C3C(CCC4=CC(=O)CCC43C)C1CC=C2CC(=O)O (stereo unspecified)
Output line: > 100 µM

Input line: Which measured TGI value corresponds to Oc1ccc(-c2nc3cc(F)ccc3s2)cc1 ?
Output line: 53.3 µM

Input line: # input compound: Cc1cccc(/C=N/NC(=S)N(C)CCc2ccccn2)n1 ; wanted: its TGI
Output line: > 100 µM

Input line: Name the reported TGI value associated with the compound CC(C)(C)OC(=O)NC(CS(=O)(=O)O)C(=O)O (stereo unspecified)
Output line: > 100 µM

Input line: Bench note: what TGI did C=C(CO)[C@H]1Oc2ccc(C(C)=O)cc2[C@@H]1O show?
Output line: > 100 µM

Input line: If you can, please state the reported TGI value of O=C1CSC(c2ccccc2O)N1c1nc2cc3sc(N4C(=O)CSC4c4ccccc4O)nc3cc2s1 (stereo unspecified) .
Output line: > 100 µM

Input line: Requested read-out: TGI. Entry: ClCCCCOC1CCCCO1 (stereo unspecified)
Output line: > 100 µM

Input line: Given the compound COc1c(C)c(O)c2c(c1C)OC(c1ccccc1)CC2=O (stereo unspecified) , what is its reported TGI?
Output line: > 100 µM

Input line: Return reported TGI; argument: CC(=O)O[C@H]1C(=O)[C@@]2(C)C(C(OC(=O)c3ccccc3)[C@]3(O)CC(OC(=O)C(O)C(NC(=O)c4ccccc4)c4cccc(Cl)c4)C(C)=C1C3(C)C)[C@]1(OC(C)=O)CO[C@@H]1C[C@@H]2O (stereo partly specified)
Output line: > 10 µM

Input line: Fill blank: measured TGI of the compound Cc1cc2c(cc1C)C(=O)/C(=C/c1ccccc1C(=O)O)C2 is ____.
Output line: > 100 µM

Input line: Any idea what TGI was measured for Cn1cc(C2=C(c3c(S(C)=O)n(C)c4ccccc34)C(=O)NC2=O)c2ccccc21 (stereo unspecified) ?
Output line: > 25 µM

Input line: What value of TGI has been reported for the following compound? Nc1nc2ncn(CC(O)COC(=O)c3ccccc3)c2c(=O)[nH]1 (stereo unspecified)
Output line: > 100 µM

Input line: // returns reported TGI for input CCOC(=O)Nc1cc2c(c(N)n1)N=C(c1ccc3ccccc3c1)CN2
Output line: 5.29 µM

Input line: Query: TGI; subject: CC(C)[C@H](C(=O)O[C@@H]1/C=C/C(=O)O[C@@H](C)CCC/C=C/[C@@H]2C[C@H](O)C[C@H]21)N(C)C
Output line: > 68.7 µM
